In this section we review reported Suppression values for a set of compounds.
# Tested on: Leishmania donovani
# PROTOCOL: Antileishmanial activity against Leishmania donovani infections in hamsters (at 13 mg/kg).
# Format: functional
RECORDED_METRIC: Suppression (%)

- COc1cc(NCCCCCCNC(C)C)c2nccc(C)c2c1Oc1cccc(C(F)(F)F)c1: 98.6
- CCCN(CCC)C(=O)N1CCN(CCCCCCNc2cc(OC)cc3c(C)ccnc23)CC1.Cl: 89.7
- CCN(CC)CCCCCCNc1cc(OC)c(Oc2cccc(C(F)(F)F)c2)c2c(C)ccnc12: 99.6
- COc1cc(NCCCCCCN2CCN(C(c3ccccc3)c3ccc(Cl)cc3)CC2)c2nccc(C)c2c1.Cl.Cl (configuration not stated): 99.4
- COc1cc(NCCCCCCN2CCN(CCCO)CC2)c2nccc(C)c2c1: 96.3
- COc1cc(NCCCCCCN2CCN(CCCN(C)C)CC2)c2nccc(C)c2c1.Cl: 65.8
- COc1cc(NCCCCCCN2C[C@H](C)S[C@@H](C)C2)c2nccc(C)c2c1: 21.4
- COc1cc(NCCCCCCN2CC(C)NC(C)C2)c2nccc(C)c2c1 (configuration not stated): 100
- CCNC(=O)N1CCN(CCCCCCNc2cc(OC)cc3c(C)ccnc23)CC1.Cl: 99.2
- COc1cc(NCCCCCCN2CCN(CC(O)CO)CC2)c2nccc(C)c2c1.Cl (configuration not stated): 100
- CCOC(=O)N1CCN(CCCCCCNc2cc(OC)cc3c(C)ccnc23)CC1: 99.9
- COc1cc(NCCCCCCN2CC(C)OC(C)C2)c2nccc(C)c2c1.Cl (configuration not stated): 99.1
- COc1cc(NCCCCCCN2CCN(C(=O)OCc3ccccc3)CC2)c2nccc(C)c2c1.Cl: 54.6
- COc1cc(NCCCCCCN2CCN(C)CC2)c2nccc(C)c2c1.Cl: 99.7
- CCN(CC)CCCCCCNc1cc(OC)cc2c(C)ccnc12 [SITAMAQUINE]: 100
- CCS(=O)(=O)CCN1CCN(CCCCCCNc2cc(OC)cc3c(C)ccnc23)CC1: 99.7
- COc1cc(NCCCCCCN2CCCN(C)CC2)c2nccc(C)c2c1: 99.8
- CCS(=O)(=O)N1CCN(CCCCCCNc2cc(OC)cc3c(C)ccnc23)CC1: 94.8
- COc1cc(NCCCCCCN2CCN(C(=O)N3CCCC3)CC2)c2nccc(C)c2c1.Cl: 100
- CCC(CC)C(=O)N1CCN(CCCCCCNc2cc(OC)cc3c(C)ccnc23)CC1.Cl: 56.6
- COc1cc(NCCCCCCN2C[C@@H](C)S[C@@H](C)C2)c2nccc(C)c2c1: 81.1
- CCN(CC)CC(O)CN1CCN(CCCCCCNc2cc(OC)cc3c(C)ccnc23)CC1.Cl (configuration not stated): 99.7

###

# System: Leishmania donovani
# PROTOCOL: Antileishmanial activity against Leishmania donovani infections in hamsters (0.81 mg/kg)
# Format: functional
RECORDED_METRIC: Suppression (%)

- COc1cc(NCCCCCCN2CCN(CCO)CC2)c2nccc(C)c2c1.Cl: 85.8
- COc1cc(NCCCCCCN2CCSCC2)c2nccc(C)c2c1.Cl: 27.61
- CCS(=O)(=O)CCN1CCN(CCCCCCNc2cc(OC)cc3c(C)ccnc23)CC1: 21.1
- COc1cc(NCCCCCCN2CCN(CC(C)O)CC2)c2nccc(C)c2c1.Cl (stereo not given): 99.8
- COc1cc(NCCCCCCN2CCN(CCC(C)C)CC2C)c2nccc(C)c2c1.Cl (stereo not given): 96.6
- COc1cc(NCCCCCCN2CCN(CC(O)CO)CC2)c2nccc(C)c2c1.Cl (stereo not given): 98.5
- COc1cc(NCCCCCCN2CCN(c3ccccn3)CC2)c2nccc(C)c2c1: 18.9
- COc1cc(NCCCCCCN2CC(C)OC(C)C2)c2nccc(C)c2c1.Cl (stereo not given): 61
- COc1cc(NCCCCCCN2CCN(C(=O)N3CCCC3)CC2)c2nccc(C)c2c1.Cl: 4.6
- COc1cc(NCCCCCCN2CCN(C(c3ccccc3)c3ccc(Cl)cc3)CC2)c2nccc(C)c2c1.Cl.Cl (stereo not given): 70

###

# Test system: Leishmania donovani
# PROTOCOL: Antileishmanial activity against Leishmania donovani infections in hamsters (at 13 mg/kg).
# Format: functional
In this section we review reported Suppression values for a set of compounds.
RECORDED_METRIC: Suppression (%)

* COc1cc(NCCCCCCN2CCN(CCC(C)C)CC2C)c2nccc(C)c2c1.Cl (stereo not given) | 98.9
* COc1cc(NCCCCCCN2CCS(=O)(=O)CC2)c2nccc(C)c2c1 | 35
* COc1cc(NCCCCCCN2CCN(CCO)CC2)c2nccc(C)c2c1.Cl | 100
* COc1cc(NCCCCCCN2CC[S+]([O-])CC2)c2nccc(C)c2c1.Cl | 84.8
* COc1cc(NCCCCCCN2CCN(CC(C)O)CC2)c2nccc(C)c2c1.Cl (stereo not given) | 99.1
* COc1cc(NCCCCCCN2CCSCC2)c2nccc(C)c2c1.Cl | 99.8
* COc1cc(NCCCCCCN2CCN(CCO)CC2)c2nccc(C)c2c1Oc1cccc(C(F)(F)F)c1.Cl | 98
* COc1cc(NCCCCCCN2CCN(CCOC(c3ccccc3)c3ccccc3)CC2)c2nccc(C)c2c1.Cl | 83.5
* CCN(CC)C(=O)N1CCN(CCCCCCNc2cc(OC)cc3c(C)ccnc23)CC1.Cl | 98.8
* COc1cc(NCCCCCCN2CCN(c3ccccn3)CC2)c2nccc(C)c2c1 | 95.9

###

# System: Leishmania donovani
# PROTOCOL: Antileishmanial activity against Leishmania donovani infections in hamsters (0.81 mg/kg)
# Type: functional
In this section we review reported Suppression values for a set of molecules.
RECORDED_METRIC: Suppression (%)

* CCOC(=O)N1CCN(CCCCCCNc2cc(OC)cc3c(C)ccnc23)CC1 | 23.9
* CCN(CC)CCCCCCNc1cc(OC)cc2c(C)ccnc12 | 100
* COc1cc(NCCCCCCN2CCN(C)CC2)c2nccc(C)c2c1.Cl | 64.7
* COc1cc(NCCCCCCN2CCCN(C)CC2)c2nccc(C)c2c1 | 61
* CCNC(=O)N1CCN(CCCCCCNc2cc(OC)cc3c(C)ccnc23)CC1.Cl | 35.9
* COc1cc(NCCCCCCN2CC(C)NC(C)C2)c2nccc(C)c2c1 (stereo unspecified) | 97.9

###

# System: Leishmania donovani
# PROTOCOL: Antileishmanial activity against Leishmania donovani infections in hamsters (208 mg/kg)
# Format: functional
RECORDED_METRIC: Suppression (%)

- CCC(CC)C(=O)N1CCN(CCCCCCNc2cc(OC)cc3c(C)ccnc23)CC1.Cl: 98.6
- COc1cc(NCCCCCCN2CCN(C)CC2)c2nccc(C)c2c1.Cl: 99.7
- COc1cc(NCCCCCCN2CCN(c3ccc(Cl)c(Cl)c3)CC2)c2nccc(C)c2c1: 77.8
- CCCN(CCC)C(=O)N1CCN(CCCCCCNc2cc(OC)cc3c(C)ccnc23)CC1.Cl: 100
- COc1cc(NCCCCCCN2C[C@H](C)S[C@@H](C)C2)c2nccc(C)c2c1: 98.2
- COc1cc(NCCCCCCN2CCCN(C)CC2)c2nccc(C)c2c1: 98.6
- COc1cc(NCCCCCCN2CCN(C(=O)N3CCCC3)CC2)c2nccc(C)c2c1.Cl: 100
- COc1cc(NCCCCCCN2CCS(=O)(=O)CC2)c2nccc(C)c2c1: 100
- CCOC(=O)N1CCN(CCCCCCNc2cc(OC)cc3c(C)ccnc23)CC1: 99.5
- CCS(=O)(=O)N1CCN(CCCCCCNc2cc(OC)cc3c(C)ccnc23)CC1: 99.9
- CCS(=O)(=O)CCN1CCN(CCCCCCNc2cc(OC)cc3c(C)ccnc23)CC1: 99.9
- COc1cc(NCCCCCCN2CCN(CCOC(c3ccccc3)c3ccccc3)CC2)c2nccc(C)c2c1.Cl: 100
- COc1cc(NCCCCCCN2CCN(c3ccccn3)CC2)c2nccc(C)c2c1: 97.5

Ref: ChEMBL document CHEMBL1122322
